test system: human cyclin D1 IRES; experiment: Dicistronic IRES mRNA reporter assay (firefly luciferase), cyclin D1 IRES; type: cell-based; conditions: LN229; relative to values obtained with parent compound C11
Assay endpoint: Cyclin D1 (decrease): fold decrease in PP242-induced cyclin D1 IRES activity (fold)
Please reply with the bare figure in fold and do not write the unit itself.

// below: answered compounds
compound=COc1ccc(CN2C(=O)CCC2=O)c(OC)c1 u=fold reported=1.26
compound=COc1ccc(N2C(=O)C=CC2=O)cc1 u=fold reported=5.58
compound=COc1ccc(CN2C(=O)c3ccccc3C2=O)c(OC)c1 u=fold reported=4.97
compound=O=C1c2ccccc2C(=O)N1N(c1ccccc1)c1ccccc1 u=fold reported=1.02
compound=O=C1C=CC(=O)N1Cc1ccc(F)cc1 u=fold reported=0.97
compound=O=C1c2ccccc2C(=O)N1Nc1ccccc1 u=fold reported=1.91
compound=O=C1c2ccccc2C(=O)N1Cc1ccccc1 u=fold reported=1.77
compound=COc1ccc(CN2C(=O)C(C)=C(C)C2=O)c(OC)c1 u=fold reported=1.42
compound=COCCCN1C(=O)c2ccccc2C1=O u=fold reported=1.61
compound=COc1ccc(N2C(=O)c3ccccc3C2=O)cc1 u=fold reported=1.17

Now look at this entry.
According to the records, this compound COc1ccc(CN2C(=O)C(Cl)=C(Cl)C2=O)c(OC)c1 [Compound C11, reference compound] displays Cyclin D1 (decrease): fold decrease in PP242-induced cyclin D1 IRES activity of 1.0

* * *

experiment: Pharmacokinetics in mice; assay type: in vivo; settings: mouse, serum, oral delivery 20 mg/kg, read-out: serum half-life (converted)
Assay endpoint: half-life

The molecule identified as COc1ccc(CN2C(=O)c3ccccc3C2=O)c(OC)c1 registered its half-life at ~30 h

* * *

assay: Pharmacokinetics in mice; format: in vivo; conditions: mouse, plasma, IV, read-out: Half-life (T1/2 b) (converted)
Assay endpoint: half-life (h)
# number only, unit h dropped from output

# half-life (molecule: COc1ccc(CN2C(=O)c3ccccc3C2=O)c(OC)c1 [IRES-J007] ) is 13.6

* * *

assay: Pharmacokinetics in mice; format: in vivo; conditions: mouse, plasma, 20 mg/kg, PO
Assay endpoint: Tmax (h)
Please respond with the number in h and leave the unit unwritten.

Reported Tmax of COc1ccc(CN2C(=O)c3ccccc3C2=O)c(OC)c1 : 7.2

* * *

assay: Pharmacokinetics in mice; assay type: in vivo; details: mouse, plasma, po, 20 mg/kg, oral gavage 20 mg/kg, read-out: bioavailability following oral delivery
Assay endpoint: bioavailability

Form: compound = COc1ccc(CN2C(=O)c3ccccc3C2=O)c(OC)c1 [IRES-J007] ; bioavailability = ~50%

* * *

assay: Pharmacokinetics in mice; format: in vivo; conditions: mouse, plasma, IV
Assay endpoint: AUC (µg·h/mL)
I only need the number, in µg·h/mL, no unit after it.

The molecule COc1ccc(CN2C(=O)c3ccccc3C2=O)c(OC)c1 showed AUC equal to 1290

* * *

assay: Pharmacokinetics in mice; format: in vivo; settings: mouse, plasma, po, 20 mg/kg, PO, calculated based on AUC, read-out: Relative Bioavailability
Assay endpoint: bioavailability (%)
Write the number in % without appending the unit.

Record COc1ccc(CN2C(=O)c3ccccc3C2=O)c(OC)c1 . Reported bioavailability: 40.1

* * *

assay: Pharmacokinetics in mice; assay type: in vivo; conditions: mouse, plasma, IV
Assay endpoint: clearance (mL/min/kg)
Kindly provide the numeric value in mL/min/kg only, without the unit symbol.

Sure, the documented clearance for COc1ccc(CN2C(=O)c3ccccc3C2=O)c(OC)c1 is 152
